Assignment: determine reported composite z-score for the given compounds.
system tested: Fibroblast growth factor 10 (Homo sapiens)
procedure summary: FGF10 binders on small-molecule microarrays, primary screen, biochemical, small-molecule microarray, 635 nm fluorescence (AID 1102)
test parameters: FGF10 binding, fluorescence 635 nm, higher = more signal
Number only, no unit.

The recorded composite z-score for C=CCC(OC(C)=O)[C@@H]1[C@@H](N(Cc2cccc3ccccc23)C(=O)c2ccc(-c3ccccc3)cc2)c2cc(OCCCO)ccc2N1C(=O)c1ccc(-c2ccccc2)cc1 (some centres undefined) is -0.221

The recorded composite z-score for CC1CC/C=C\[C@H]2OC34C=CCN(CCN5CCOCC5)C(=O)[C@H]3N(C(C)CO)C(=O)[C@@H]4C2C(=O)O1 (some centres undefined) is -0.42

The recorded composite z-score for CC(C)C(=C=CC[C@@H](O)c1cccc(OCCO)c1)C[C@@H](O)c1ccccn1 is 0.285

The recorded composite z-score for [N-]=[N+]=Nc1ccccc1C[C@]1(C(=O)O)N=C(c2ccc(OCCCO)cc2)O[C@H]1c1ccccc1 is 0.143

----------
system tested: Alpha-bungarotoxin (Bungarus multicinctus) (UniProt P60615)
Sequence (P60615 whole entry, looked up): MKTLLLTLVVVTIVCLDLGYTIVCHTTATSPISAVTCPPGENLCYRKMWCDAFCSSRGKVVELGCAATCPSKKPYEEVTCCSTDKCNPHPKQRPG
procedure summary: alpha-bungarotoxin binders on microarray, profiling panel, artefact control for SMM control protein annotation, biochemical, small-molecule microarray, Alexa647 label, 635/667 nm fluorescence (AID 1117)
test parameters: alpha-BTX-A647 binding fluorescence, higher = more signal
experimental readout: composite z-score
Number only, no unit.

The recorded composite z-score for C=CCC(OC(C)=O)[C@@H]1[C@@H](N(Cc2ccc(-c3ccccc3)cc2)C(=O)c2ccc(C)cc2)c2cc(OCCCO)ccc2N1C(=O)Cc1ccc2ccccc2c1 (some centres not stated) is 0.0941

The recorded composite z-score for CCC(CC)C(O)C1C=CC2C(=O)N(c3ccccc3)C(=O)C2N1Nc1ccc([N+](=O)[O-])cc1 (configuration not stated) is 1.42

The recorded composite z-score for O=C1O[C@H](c2ccccc2)[C@H](c2ccccc2)N2[C@H]1[C@@H](C(=O)Nc1nc3ccccc3s1)[C@]1(C(=O)Nc3ccc(C#CC4=CCCCC4)cc31)[C@H]2c1ccc(O)cc1 is 1.4

The recorded composite z-score for COc1cc2c(cc1O)C(c1ccc(CN3CCCC3)cc1)N(C)CC2 (configuration not stated) is 0.0735

The recorded composite z-score for C=CCNC(=O)[C@H]1[C@@H]2C(=O)O[C@@H](c3ccccc3)[C@@H](c3ccccc3)N2[C@@H](c2ccc(OCCO)cc2)[C@]12C(=O)N(C(=O)OCCOC)c1ccc(C#Cc3ccc(OC)cc3)cc12 is 1.49

The recorded composite z-score for COc1ccc([Si](C)(C)[C@@H]2[C@@H](CC(=O)N3Cc4ccccc4C[C@H]3CO)O[C@]3(C(=O)N(Cc4ccc(N5CCC5=O)cc4)c4ccccc43)[C@H]2C)cc1 is 0.963

The recorded composite z-score for O=C1NC(=O)C2C1C=CC(C(O)c1ccccn1)N2Nc1ccc(Cl)cc1Cl (configuration not stated) is -0.0671

The recorded composite z-score for CCOC(=O)C[C@H]1[C@H](OC(=O)c2cc3ccccc3oc2=O)[C@@H](NC(=O)c2ccc3ccccc3c2)c2cc(OCCCO)ccc2N1C(=O)Cc1ccc(OC)cc1 is 0.259

The recorded composite z-score for C=C(COC)/C(=C/C[C@H](OC(C)=O)c1cccc(OCCO)c1)c1cnc2ccccc2c1 is 2.04

The recorded composite z-score for O=C1O[C@H](c2ccccc2)[C@H](c2ccccc2)N2[C@H]1[C@@H](C(=O)O)[C@]1(C(=O)Nc3ccc(C#CC4(O)CCCCCC4)cc31)[C@H]2c1ccc(O)cc1 is -0.0118

The recorded composite z-score for COc1cc(NN2C(C(O)c3ccc(I)cc3)C=CC3C(=O)N(c4ccccc4)C(=O)C32)cc(OC)c1OC (configuration not stated) is 1.68

The recorded composite z-score for COCCOC(=O)N1C(=O)[C@@]2(c3cc(C#Cc4ccc(OC)cc4)ccc31)[C@H](C(=O)NC[C@H](O)c1ccccc1)[C@H]1C(=O)O[C@H](c3ccccc3)[C@H](c3ccccc3)N1[C@@H]2c1ccc(OCCO)cc1 is 1.53

----------
system tested: Calmodulin-1 (Homo sapiens)
procedure summary: CALM1 binders on microarrays, EGTA buffer, profiling panel, biochemical, small-molecule microarray, Cy5-labelled CALM1 (AID 1111);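 note: labelled calmodulin applied in Tris saline Tween buffer holding calcium plus EGTA and DTT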
test parameters: Cy5-CALM1 binding fluorescence, higher = more signal
experimental readout: composite z-score
Number only, no unit.

The recorded composite z-score for CC(C)C[C@@H]1NC(=O)[C@@]23C(=O)N[C@@H](Cc4ccccc4)C2[C@H](C)[C@@]2(C)O[C@H]2C3/C=C/C/C=C\CNC(=O)[C@@H](C)NC1=O (stereo not given in full) is -0.463

The recorded composite z-score for CN1C(=O)[C@@]2(Cc3ccccc3)N=C(c3ccc(OCCCO)cc3)O[C@H]2c2ccccc21 is 0.329

The recorded composite z-score for COc1ccc([Si](C)(C)[C@H]2[C@H](CC(=O)N3CCC[C@H]3CO)O[C@@]3(C(=O)N(Cc4ccc(N5CCC5=O)cc4)c4ccccc43)[C@@H]2C)cc1 is 0.865

The recorded composite z-score for C=C(COC)/C(=C/C[C@@H](OC(C)=O)c1ccc(CO)o1)c1cc(C(=O)OC)ccc1OC is -0.177

The recorded composite z-score for CCCNC(=O)[C@@]1(Sc2ccc(C)cc2)CC(=O)N(C(C)C)[C@@H]1c1ccc(CO)cc1I is 1.31

The recorded composite z-score for COCCOC(=O)N1C(=O)[C@@]2(c3cc(C#CCC(C(=O)OC)C(=O)OC)ccc31)[C@H](C(=O)NC[C@H](O)c1ccccc1)[C@H]1C(=O)O[C@H](c3ccccc3)[C@H](c3ccccc3)N1[C@@H]2c1ccc(OCCO)cc1 is 1.39

The recorded composite z-score for [N-]=[N+]=Nc1ccccc1C[C@]1(C(=O)O)N=C(c2ccc(OCCCO)cc2)O[C@H]1c1ccccc1 is 0.163

The recorded composite z-score for C=C(C)C1CCC(C(O)C2C=CC3C(=O)N(C)C(=O)C3N2Nc2cc(OC)c(OC)c(OC)c2)CC1 (stereo not given) is 0.655

The recorded composite z-score for C=C/C=C/[C@@H]1C(=C)CN([C@@H](Cc2ccccc2)C(=O)OC)[C@H]1[C@@H](O)Cc1ccccc1 is 0.241

The recorded composite z-score for COc1ccc([Si](C)(C)[C@@H]2[C@@H](CC(=O)N3Cc4ccccc4C[C@H]3CO)O[C@]3(C(=O)N(Cc4ccc(N5CCC5=O)cc4)c4ccccc43)[C@H]2C)cc1 is 1.04

The recorded composite z-score for COCCOC(=O)N1C(=O)[C@@]2(c3cc(C#CCNC(N)=O)ccc31)[C@H](c1ccc(O)cc1)N1[C@H](c3ccccc3)[C@H](c3ccccc3)OC(=O)[C@H]1[C@@H]2C(=O)N1CCN(c2ncccn2)CC1 is 2.03

The recorded composite z-score for CCCCNC(=O)c1ccc(C#C[Si](C(C)C)(C(C)C)C(C)C)c(OC(C)=O)c1 is 0.367

The recorded composite z-score for [N-]=[N+]=NCc1ccccc1[C@@H]1OC(c2ccc(OCCCO)cc2)=N[C@]1(Cc1ccccc1)C(=O)NCCN1CCOCC1 is 1.2

The recorded composite z-score for Cc1c(NC(=O)/C(C#N)=C/c2ccccc2Cl)c(=O)n(-c2ccccc2)n1C is 1.01

The recorded composite z-score for O=C1C2C=CC(C(O)c3ccc(I)cc3)N(Nc3ccccc3)C2C(=O)N1c1ccccc1 (stereo not given) is 2.51

----------
procedure summary: small-molecule microarray binders of probe aCHRDL2, primary screen, biochemical, biotinylated probe, 635/667 nm fluorescence (AID 1100)
test parameters: higher = more signal
experimental readout: composite z-score
Number only, no unit.

The recorded composite z-score for CC(C)[C@H]1NC(=O)[C@@]23C(=O)N[C@@H](Cc4ccccc4)C2[C@H](C)[C@@]2(C)O[C@H]2C3/C=C/CCC/C=C/CNC(=O)[C@H](Cc2ccccc2)NC1=O (stereo partly drawn) is -0.32

The recorded composite z-score for O=C1O[C@H](c2ccccc2)[C@H](c2ccccc2)N2[C@H]1[C@@H](C(=O)N1CCCCCCC1)[C@]1(C(=O)Nc3ccc(C#CC4(O)CCCCCC4)cc31)[C@H]2c1ccc(O)cc1 is 1.59

The recorded composite z-score for C=CCN1C(=O)[C@]2(O[C@H](CCO)[C@@H]([Si](C)(C)c3ccc(OC)cc3)[C@@H]2C)c2cc(N3C(=O)COc4ccccc43)ccc21 is 0.33

----------
procedure summary: adipocyte viability effects, profiling panel, cell-based, 3T3-L1 adipocytes, calcein-AM fluorescence, 48 h, basal (AID 1163); note: test concentration not given here
test parameters: 3T3-L1 adipocytes viability, higher = more signal
z-score strictly under -0.3 means 1.0; at -0.3 or over means 0.0.

Task item: Threshold test, z-score < -0.3: CN(C)C(=O)[C@]1(CCS(=O)(=O)c2ccccc2)N=C(c2ccc(OCCCO)cc2)O[C@@H]1c1ccccc1
Reply: 0.0

Task item: Threshold test, z-score < -0.3: CCOC(=O)C1=CC[C@@H](c2ccccc2)N(S(=O)(=O)c2ccc(C)cc2)[C@H]1c1cccc(OC)c1
Reply: 1.0

Task item: Threshold test, z-score < -0.3: CCOC(=O)C=Cc1ccccc1O
Reply: 0.0

Task item: Threshold test, z-score < -0.3: O=C(CS)NCCCCCNC(=O)[C@@H]1C[C@@H]2C(=O)N[C@@H](Cc3ccccc3)C(=O)N2[C@@H]1c1cccc(OCCO)c1
Reply: 0.0

Task item: Threshold test, z-score < -0.3: COCCOC(=O)N1C(=O)[C@@]2(c3cc(C#CCNC(N)=O)ccc31)[C@H](c1ccc(O)cc1)N1[C@H](c3ccccc3)[C@H](c3ccccc3)OC(=O)[C@H]1[C@@H]2C(N)=O
Reply: 1.0

Task item: Threshold test, z-score < -0.3: CC(C)(C)OC(=O)CC[C@]12N=C(c3ccc(OCCCO)cc3)O[C@H]1c1ccccc1N(Cc1ccccc1)C2=O
Reply: 0.0

Task item: Threshold test, z-score < -0.3: CCOC(=O)C[C@H]1[C@H](OC(=O)c2ccccc2-c2ccccc2)[C@@H](NC(=O)c2ccccc2)c2cc(OCCCO)ccc2N1C(=O)c1ccccc1
Reply: 1.0

Data provenance: PubChem BioAssay
